Hepatic Microsome Stability (% remaining at 1 Hr) Mouse (no NADPH) listing for selected compounds.
- Experiment: Hepatic Microsome Stability Mouse
- Type: in vitro ADME
- Study conditions: no NADPH
Give a bare numeral; the unit % remaining is implied.

{"Compound": "O=C(/C=C/c1ccccc1)c1c(C2CCCCC2)c2cc(Cl)ccc2[nH]c1=O", "Result units": "% remaining", "Meas value": 63.69}
{"Compound": "O=C(/C=C/c1cncc(F)c1)c1c(-c2ccccc2)c2cc(Cl)ccc2[nH]c1=O", "Result units": "% remaining", "Meas value": 53.97}

Query block: // lookup Hepatic Microsome Stability (% remaining at 1 Hr) Mouse (no NADPH) for O=C(/C=C/c1nc2cc(Cl)ccc2[nH]1)c1c(-c2ccccc2)c2cc(Cl)ccc2[nH]c1=O
Result block: 82.96

Query block: // lookup Hepatic Microsome Stability (% remaining at 1 Hr) Mouse (no NADPH) for O=C(/C=C/c1nc2ccccc2[nH]1)c1c(O)nc2ccc(Cl)cc2c1-c1ccccc1 [BI-69A11, reference compound]
Result block: 45.01
